target: NADPH oxidase 4 (Homo sapiens) (UniProt Q9NPH5); test: NOX4-dependent H2O2 signal modulators, primary screen, NOX inhibitor project, cell-based, HEK293-NOX4, tetracycline-induced, Amplex Red fluorescence (AID 1160); settings: 45 min, higher = more signal, called active from +8 up or from −8 down
Sequence (Q9NPH5 whole entry, looked up): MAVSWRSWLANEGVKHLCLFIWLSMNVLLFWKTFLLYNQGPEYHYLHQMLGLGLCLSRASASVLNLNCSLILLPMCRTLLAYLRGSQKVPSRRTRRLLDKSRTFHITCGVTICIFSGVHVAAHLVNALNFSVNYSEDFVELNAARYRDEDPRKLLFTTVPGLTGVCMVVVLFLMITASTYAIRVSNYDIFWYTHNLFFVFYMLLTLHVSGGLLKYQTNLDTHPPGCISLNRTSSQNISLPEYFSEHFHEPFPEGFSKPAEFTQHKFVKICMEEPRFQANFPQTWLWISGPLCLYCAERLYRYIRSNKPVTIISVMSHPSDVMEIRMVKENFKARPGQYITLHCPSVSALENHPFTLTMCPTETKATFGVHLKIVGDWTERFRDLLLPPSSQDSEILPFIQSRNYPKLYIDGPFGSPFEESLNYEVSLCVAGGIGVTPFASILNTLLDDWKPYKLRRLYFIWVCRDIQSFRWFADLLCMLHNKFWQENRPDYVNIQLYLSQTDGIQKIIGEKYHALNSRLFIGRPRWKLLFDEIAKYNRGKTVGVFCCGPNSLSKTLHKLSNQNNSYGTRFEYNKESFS
Record form. Attribute: z-score. Fill in for each entry.
Write the number on its own, no unit after it.

Could you share which z-score value was measured for [N-]=[N+]=NCc1ccccc1C[C@]1(C(=O)O)COC(c2ccc(OCCCO)cc2)=N1 ?
1.27

Could you share which z-score value was measured for CCN(CC)c1ccc(N2CC=CC34O[C@@H]5C=CCOC(=O)[C@@H]5[C@H]3C(=O)N(CCO)[C@@H]4C2=O)cc1 (stereo partly drawn) ?
0.364

Could you share which z-score value was measured for CC(C)C[C@@H]1NC(=O)[C@H]2C[C@@H](C(=O)NCCCCCCNC(=O)CS)[C@@H](c3ccc(O)cc3)N2C1=O ?
0.633

Could you share which z-score value was measured for COC(=O)Cn1c(C(=O)N(C)C)cc2c1C[C@H]1CN(C(=O)c3ccccc3)[C@@](Cc3ccc(OC)cc3)(C(=O)OC)[C@@H]21 ?
-0.539

Could you share which z-score value was measured for C=CCC(OC(C)=O)[C@@H]1[C@@H](N(Cc2ccc(-c3ccccc3)cc2)C(=O)c2cccc3ccccc23)c2cc(OCCCO)ccc2N1C(=O)c1ccc2ccccc2c1 (stereo partly drawn) ?
-0.572

Could you share which z-score value was measured for C=CCC(OC(C)=O)[C@@H]1[C@@H](N(Cc2ccc(-c3ccccc3)cc2)C(=O)c2ccc(-c3ccccc3)cc2)c2cc(OCCCO)ccc2N1C(=O)c1ccc2ccccc2n1 (stereo partly drawn) ?
1.33

Could you share which z-score value was measured for NC(=O)N1C(=O)C2C(C1=O)C1C=C(CCCO)C2C(c2ccc(CN3CCCC3)cc2)N1Cc1cccc(OC(F)(F)F)c1 (stereo not drawn) ?
-0.76

Could you share which z-score value was measured for O=C1O[C@H](c2ccccc2)[C@H](c2ccccc2)N2[C@H]1[C@@H](C(=O)NC[C@H](O)c1ccccc1)[C@]1(C(=O)Nc3ccc(C#CCCO)cc31)[C@H]2c1ccccc1OCCO ?
1.35

Could you share which z-score value was measured for C=CCNC(=O)[C@H]1[C@@H]2C(=O)O[C@@H](c3ccccc3)[C@@H](c3ccccc3)N2[C@@H](c2ccc(O)cc2)[C@]12C(=O)Nc1ccc(C#CC3=CCCCC3)cc12 ?
0.676

Could you share which z-score value was measured for COc1ccccc1CN1C(=O)c2ccccc2[C@@H](C(=O)NCCCN(C)C)[C@@H]1c1ccc(CO)cc1 ?
-0.436

Could you share which z-score value was measured for CCCCC(=C=CC[C@@H](O)c1cccc(OCCO)c1)CCO ?
-0.283

Could you share which z-score value was measured for CC(=O)c1ccc(C(O)C2C=CC3C(=O)NC(=O)C3N2Nc2ccc(Cl)cc2Cl)cc1 (stereo not drawn) ?
-5.81

Could you share which z-score value was measured for C=CC[C@]1(C(=O)OC)N=C(c2ccc(OCCCO)cc2)O[C@H]1c1ccccc1N=[N+]=[N-] ?
0.988

Could you share which z-score value was measured for NCCCC[C@@H]1NC(=O)[C@H]2C[C@@H](C(=O)O)[C@@H](c3cccc(OCCO)c3)N2C1=O ?
0.834

Could you share which z-score value was measured for CN(C)C(=O)[C@@]1(CCS(=O)(=O)c2ccccc2)N=C(c2ccc(OCCCO)cc2)O[C@H]1c1ccccc1N=[N+]=[N-] ?
-0.478

Could you share which z-score value was measured for C=CCOC(=O)[C@H]1[C@@H]2C(=O)O[C@@H](c3ccccc3)[C@@H](c3ccccc3)N2[C@@H](c2ccc(OCCOC(=O)[C@H]3C[C@H]4C(=O)NCC(=O)N4[C@H]3c3ccc(O)cc3)cc2)[C@]12C(=O)Nc1ccc(I)cc12 ?
1.5

Could you share which z-score value was measured for COCCOC(=O)N1C(=O)[C@@]2(c3ccccc31)[C@H](C(=O)N1CCCCCCC1)[C@H]1C(=O)O[C@H](c3ccccc3)[C@H](c3ccccc3)N1[C@@H]2c1ccc(O)cc1 ?
-0.538

Could you share which z-score value was measured for COC(=O)[C@@]1(CCC(=O)OC(C)(C)C)N=C(c2ccc(OCCCO)cc2)O[C@H]1c1ccccc1CN=[N+]=[N-] ?
-0.475

Could you share which z-score value was measured for COCCOC(=O)N1C(=O)[C@@]2(c3cc(C#CC4(O)CCCCCC4)ccc31)[C@H](C(=O)N1CCc3cc(OC)c(OC)cc3C1)[C@H]1C(=O)O[C@H](c3ccccc3)[C@H](c3ccccc3)N1[C@@H]2c1ccc(O)cc1 ?
0.296

Could you share which z-score value was measured for CN(C)CCCC[C@@H]1NC(=O)[C@@H]2C[C@H](C(=O)NCCCCCCNC(=O)CS)[C@H](c3cccc(OCCO)c3)N2C1=O ?
0.84

Could you share which z-score value was measured for CC1(C)OC[C@@]23C=C(Br)[C@@H](C[C@H]12)[C@@]1(CO1)C3=O ?
0.63

Could you share which z-score value was measured for [N-]=[N+]=NCc1ccccc1C[C@]1(C(=O)N2CCCCC2)N=C(c2ccc(OCCCO)cc2)O[C@H]1c1ccccc1 ?
-0.0602

Could you share which z-score value was measured for O=C1C2C=CC(C(O)c3cccc(O)c3)N(Nc3ccccc3F)C2C(=O)N1c1ccccc1 (stereo not drawn) ?
-5.16

Could you share which z-score value was measured for CCCCC(=C=CC[C@H](O)c1ccc(OCCO)cc1)C[C@H](O)c1ccccn1 ?
0.364

Could you share which z-score value was measured for CCOC(=O)C1=C[C@@H](C(C)(C)C)N(S(=O)(=O)c2ccc(C)cc2)[C@H]1c1ccccc1Cl ?
-0.44

Could you share which z-score value was measured for CO[C@H]1O[C@H](CO)[C@@H](OC(=O)Nc2ccc(C(F)(F)F)cc2)[C@H](OC(=O)Nc2ccccc2-c2ccccc2)[C@H]1OC(=O)Nc1ccccc1-c1ccccc1 ?
-1.07

Could you share which z-score value was measured for C[C@H]1C2[C@H](Cc3ccccc3)NC(=O)[C@]23C(=O)NCC(=O)N2CCC[C@H]2C(=O)NC/C=C\C/C=C/C3[C@@H]2O[C@]12C (stereo partly drawn) ?
1.07

Could you share which z-score value was measured for Cc1c(-c2ccc(-c3ccc(Cl)c(Cl)c3)o2)nc(-c2ccccc2)c2c1CO[Si]2(C(C)C)C(C)C ?
0.0324

----------
test: small-molecule microarray binders of probe aDKK1, primary screen, biochemical, biotinylated probe, 635/667 nm fluorescence (AID 1099); details: higher = more signal;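 also: score merges 667nm spot fluorescence with signal to noise across triplicate slides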
Record form. Attribute: composite z-score. Fill in for each entry.
Write the number on its own, no unit after it.

Could you share which composite z-score value was measured for COC(=O)[C@@]1(Cc2ccccc2)[C@@H]2[C@@H](CC(=O)[C@H]2CC(=O)C(=O)N(C)C)CN1C(=O)c1ccccc1 ?
0.0889

Could you share which composite z-score value was measured for Cc1ccc(S[C@]2(C(=O)NC3CC3)CC(=O)N(Cc3cc(C(F)(F)F)cc(C(F)(F)F)c3)[C@@H]2c2ccc(CO)cc2I)cc1 ?
0.679

Could you share which composite z-score value was measured for C=CCNC(=O)[C@@H]1[C@H]2C(=O)O[C@H](c3ccccc3)[C@H](c3ccccc3)N2[C@H](c2ccc(O)cc2)[C@@]12C(=O)Nc1ccc(C#CC3(O)CCCCCC3)cc12 ?
-0.0065

Could you share which composite z-score value was measured for COC(=O)[C@]1(CO)N=C(c2ccc(OCCCO)cc2)O[C@@H]1c1ccccc1CN=[N+]=[N-] ?
0.109

Could you share which composite z-score value was measured for COCCOC(=O)N1C(=O)[C@@]2(c3cc(C#CC4(O)CCCCCC4)ccc31)[C@H](c1ccc(OCCO)cc1)N1[C@H](c3ccccc3)[C@H](c3ccccc3)OC(=O)[C@H]1[C@@H]2C(=O)N1CCCCCCC1 ?
1.63

Could you share which composite z-score value was measured for COc1cccc(OC)c1C(=O)O[C@H]1[C@@H]2OC(=O)[C@H](Cc3cccc(Br)c3)C/C=C/C[C@@H](Cc3cccc(Br)c3)C(=O)O[C@H]2[C@@H](OC)O[C@@H]1CO ?
0.281

----------
target: Albumin (Bos taurus) (UniProt P02769); assay: bovine serum albumin binders on microarray, profiling panel, artefact control for SMM control protein annotation, biochemical, small-molecule microarray, Alexa647 label, 635/667 nm fluorescence (AID 1118); conditions: BSA-A647 binding, fluorescence 635 nm, higher = more signal;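 also: score merges 667 nm emission intensity and signal-to-noise per printed compound spot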
Sequence (P02769 whole entry, looked up): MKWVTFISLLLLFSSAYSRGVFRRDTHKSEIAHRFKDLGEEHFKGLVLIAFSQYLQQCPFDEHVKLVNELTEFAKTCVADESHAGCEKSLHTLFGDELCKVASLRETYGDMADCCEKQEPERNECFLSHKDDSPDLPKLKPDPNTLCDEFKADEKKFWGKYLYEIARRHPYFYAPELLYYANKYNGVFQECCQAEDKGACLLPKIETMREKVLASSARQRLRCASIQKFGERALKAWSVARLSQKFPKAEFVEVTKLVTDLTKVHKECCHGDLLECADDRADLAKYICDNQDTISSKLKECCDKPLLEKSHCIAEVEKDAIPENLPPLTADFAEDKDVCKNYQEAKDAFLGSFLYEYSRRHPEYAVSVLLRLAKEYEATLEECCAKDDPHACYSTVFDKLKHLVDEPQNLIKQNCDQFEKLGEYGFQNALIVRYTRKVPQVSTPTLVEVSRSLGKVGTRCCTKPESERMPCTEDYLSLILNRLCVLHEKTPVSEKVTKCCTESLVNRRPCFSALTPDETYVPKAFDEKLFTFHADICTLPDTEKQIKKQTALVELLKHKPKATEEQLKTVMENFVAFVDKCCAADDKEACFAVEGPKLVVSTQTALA
Record form. Attribute: composite z-score. Fill in for each entry.
Write the number on its own, no unit after it.

Could you share which composite z-score value was measured for C=C(COC)C(=O)CC[C@@H](OC(=O)c1cccnc1)c1cccc(OCCO)c1 ?
0.0464

Could you share which composite z-score value was measured for COCCOC(=O)N1C(=O)[C@@]2(c3cc(C#CC4(O)CCCCCC4)ccc31)[C@H](C(=O)N1CCc3cc(OC)c(OC)cc3C1)[C@H]1C(=O)O[C@H](c3ccccc3)[C@H](c3ccccc3)N1[C@@H]2c1ccc(O)cc1 ?
0.609

Could you share which composite z-score value was measured for C[C@]1(C(=O)NCC(F)(F)F)c2ccccc2C(=O)N(Cc2ccc(OC(F)(F)F)cc2)[C@H]1c1ccc(CO)cc1 ?
0.499

Could you share which composite z-score value was measured for CC(C)C[C@H]1NC(=O)[C@@H](C)NC(=O)[C@@]23C(=O)N[C@@H](Cc4ccccc4)C2[C@H](C)[C@@]2(C)O[C@H]2C3/C=C/C/C=C\CNC1=O (stereo not given in full) ?
0.239

Could you share which composite z-score value was measured for C=CC[C@@]1(C(=O)O)N=C(c2ccc(OCCCO)cc2)O[C@@H]1c1ccccc1CN=[N+]=[N-] ?
0.557

Could you share which composite z-score value was measured for CCOC(=O)C1=C(C(=O)OCC)N(S(=O)(=O)CC[Si](C)(C)C)[C@H](c2ccccc2)CC1 ?
0.565

Could you share which composite z-score value was measured for O=C1O[C@H](c2ccccc2)[C@H](c2ccccc2)N2[C@H]1[C@@H](C(=O)N1CCN(c3ncccn3)CC1)[C@]1(C(=O)Nc3ccccc31)[C@H]2c1ccc(O)cc1 ?
0.753

Could you share which composite z-score value was measured for COc1cc2c(cc1O)C(C1CC1)N(Cc1ccc([N+](=O)[O-])o1)CC2 (stereo not given) ?
0.959

Could you share which composite z-score value was measured for CC(C)c1ccc(NN2C(C(O)C(C)C)C=CC3C(=O)N(c4ccccc4)C(=O)C32)cc1 (stereo not given) ?
1.07

Could you share which composite z-score value was measured for COc1cc(OC)c(C(O)C2C=CC3C(=O)N(c4ccccc4)C(=O)C3N2Nc2ccccc2F)cc1Br (stereo not given) ?
0.89

Could you share which composite z-score value was measured for COc1ccc(C#Cc2ccc3c(c2)[C@]2(C(=O)N3)[C@H](c3ccc(OCCO)cc3)N3[C@H](c4ccccc4)[C@H](c4ccccc4)OC(=O)[C@H]3[C@@H]2C(=O)O)cc1 ?
-0.0067

Could you share which composite z-score value was measured for COc1ccc([Si](C)(C)[C@H]2[C@H](CC(=O)N3Cc4ccccc4C[C@H]3CO)O[C@@]3(C(=O)N(Cc4cccc(N5C(=O)c6cccc7cccc5c67)c4)c4ccccc43)[C@@H]2C)cc1 ?
-0.0311

Could you share which composite z-score value was measured for C=C(COC)/C(=C/C[C@H](OC(=O)c1ccncc1)c1ccc(OCCO)cc1)c1cc(C(=O)OC)ccc1OC ?
0.401

Could you share which composite z-score value was measured for C=CCC(OC(C)=O)[C@@H]1[C@@H](N(Cc2ccc(-c3cccc(C(F)(F)F)c3)o2)C(=O)Cc2ccc(F)cc2)c2cc(OCCCO)ccc2N1C(=O)c1ccc2ccccc2c1 (stereo not given in full) ?
-0.229

Could you share which composite z-score value was measured for Cc1ccccc1C(O)C1C=CC2C(=O)N(c3ccccc3)C(=O)C2N1Nc1ccccc1F (stereo not given) ?
1.03
